Quick reference for pIC50 among some compounds
Target system: UniProtKB P19327
Sequence (P19327 1-422): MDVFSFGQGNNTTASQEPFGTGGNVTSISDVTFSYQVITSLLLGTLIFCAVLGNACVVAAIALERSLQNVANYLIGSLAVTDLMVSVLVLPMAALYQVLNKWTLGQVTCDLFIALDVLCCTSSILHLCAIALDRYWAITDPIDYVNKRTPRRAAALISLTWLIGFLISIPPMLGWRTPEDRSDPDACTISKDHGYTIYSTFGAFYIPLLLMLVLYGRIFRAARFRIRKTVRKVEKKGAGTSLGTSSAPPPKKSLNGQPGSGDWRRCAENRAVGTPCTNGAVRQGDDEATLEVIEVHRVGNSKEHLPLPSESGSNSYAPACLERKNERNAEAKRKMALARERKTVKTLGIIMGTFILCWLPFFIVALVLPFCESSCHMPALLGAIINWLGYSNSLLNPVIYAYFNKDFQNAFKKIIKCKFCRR
Give only the number. pIC50 is defined as minus log10 of concentration in molar units.

COc1ccccc1N1CCN(CCC(C(=O)N2CCCCCC2)c2ccccc2)CC1 (centres unmarked) [Compound A]: 8.52

Next compound, please.
# input Suppose we examine the compound COc1ccccc1N1CCN(CCC(C(=O)N2CCCCCC2)c2ccccc2)CC1 (single isomer, unassigned) [Compound C] ; what pIC50 value has been reported?
# output 9.00
